system.tested: T1, 4H454-bN
T1 chain: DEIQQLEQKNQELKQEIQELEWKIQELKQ
experiment.description: two-hybrid library CCNG1;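 note: natural log of median RNA to DNA barcode read ratio; higher means stronger binding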
measurement.label: interaction score
Reply with just the number.

| binder | measurement.label | quantitative.result |
| --- | --- | --- |
| DKNQQLEQEIQELKQKNQELEWEIQELEQ [4H3185-bN] | interaction score | -2.08 |

Reported interaction score, binder DKIQQLKQEIQELEQEIQELKWKNQELKQ [4H2576-bN] : ____
-0.887

Reported interaction score, binder DKNQQLEQKIQELEQENQELKWEIQELKQ [4H3354-bN] : ____
-0.726

Reported interaction score, binder DENQQLEQKNQELEQKIQELEWKIQELKQ [4H1446-bN] : ____
0.124

Reported interaction score, binder DKIQQLKQEIQELKQKIQELKWENQELEQ [4H2667-bN] : ____
0.31

Reported interaction score, binder DKIQQLKQEIQELEQKNQELKWEIQELKQ [4H2618-bN] : ____
0.067

Reported interaction score, binder DKIQQLEQKNQELEQEIQELKWEIQELKQ [4H2442-bN] : ____
0.883

Where do these numbers come from? They come from paper PMC10397247.
